test: plasma pharmacokinetics after oral administration; type: in vivo, Male CD-1 mice; conditions: male, CD-1, mouse, po, 25 mg/kg, single PO dose 25 mg/kg, 24 hr, BLQ = 0, read-out: Plasma Concentrations, Mean
assayReadout: concentration at 24 h (ng/mL)

INSERT INTO assay_data (smilesnotation, endpointvalue) VALUES
  ('CN1CCN(CCOc2ccc(-c3ccc(CC(=O)NCc4cccc(F)c4)cc3)c(F)c2)CC1', 15.6);

---

Test: plasma pharmacokinetics after IV administration
Type: in vivo, Male CD-1 mice
Details: male, CD-1, mouse, plasma, iv, 5 mg/kg, single IV dose 5 mg/kg, 5 min; read-out: Plasma Concentrations, Group A, B, C
Procedure: [drawing 435] are described below. Plasma concentrations were measured in mice after oral and IV administration. Both oral and IV doses were formulated in saline. Male CD-1 mice were dosed after an overnight fast and fed 4 hours post-dose. A single IV dose of 139 was administered to male CD-1 mice intravenously at 5 mg/kg (dose volume of 3 mL/kg). The plasma concentration of 139 was measured at 0 min, 5 min, 15 min, 30 min, 1 h, 3 h, 6 h, and 12 h time points. […]
assayReadout: concentration at 5 min (ng/mL)

INSERT INTO measurements (smilesnotation, endpointvalue) VALUES
  ('CN1CCN(CCOc2ccc(-c3ccc(CC(=O)NCc4cccc(F)c4)cc3)c(F)c2)CC1', 1200);

---

experiment: brain exposure after oral administration; format: in vivo, male CD-1 mice; settings: male, CD-1, mouse, brain, po, 50 mg/kg, Male CD-1 mice, single PO dose 50 mg/kg (Group 4), 0 hr, Mean; read-out: KX2-391 Brain Concentrations, Mean
assayReadout: concentration at 0 hr (ng/g)

INSERT INTO results (compound, assayreadout, unitofmeasure, endpointvalue) VALUES
  ('O=C(Cc1ccc(-c2ccc(OCCN3CCOCC3)cc2)cn1)NCc1ccccc1 [KX2-391]', 'concentration at 0 hr', 'ng/g', 0);

---

assay: brain exposure after oral administration; type: in vivo, male CD-1 mice; conditions: male, CD-1, mouse, brain, po, 50 mg/kg, Male CD-1 mice, single PO dose 50 mg/kg (Group 4), 5 hr, Group A; read-out: KX2-391 Brain Concentrations, Group A
assayReadout: concentration at 5 hr

INSERT INTO results (smilesnotation, endpointvalue) VALUES
  ('O=C(Cc1ccc(-c2ccc(OCCN3CCOCC3)cc2)cn1)NCc1ccccc1', '122 ng/g');

---

test: brain exposure after oral administration; format: in vivo, male CD-1 mice; conditions: male, CD-1, mouse, brain, po, 50 mg/kg, Male CD-1 mice, single PO dose 50 mg/kg (Group 4), 5 hr, Group C; read-out: KX2-391 Brain Concentrations, Group C
assayReadout: concentration at 5 hr (ng/g)

INSERT INTO results (molecule, endpointvalue) VALUES
  ('O=C(Cc1ccc(-c2ccc(OCCN3CCOCC3)cc2)cn1)NCc1ccccc1 [KX2-391]', 239);

---

experiment: plasma pharmacokinetics after oral administration; assay type: in vivo, Male CD-1 mice; conditions: male, CD-1, mouse, po, 25 mg/kg, single PO dose 25 mg/kg, 3 hr, read-out: Plasma Concentrations, Mean
assayReadout: concentration at 3 h (ng/mL)

INSERT INTO results (smilesnotation, endpointvalue) VALUES
  ('CN1CCN(CCOc2ccc(-c3ccc(CC(=O)NCc4cccc(F)c4)cc3)c(F)c2)CC1', 330);

---

Assay: plasma exposure after oral administration
Assay type: in vivo, male CD-1 mice
Conditions: male, CD-1, mouse, plasma, po, 10 mg/kg, single PO dose 10 mg/kg (Group 1), 5 hr; read-out: Plasma Concentrations, Group A, B, C
Method: Plasma concentrations were measured in mice after oral administration. All doses were formulated in purified water. Four groups of male CD-1 mice were dosed after an overnight fast and fed 4 hours post-dose. Dosing was as follows: Protein was precipitated with 0.25 mL acetonitrile for plasma, 0.25 mL for brain. After centrifugation, supernatant was directly injected into an LC/MS system. The limit of quantitation was 1 ng/mL using a 50 μL aliquot for plasma and a 50 μL, aliquot for brain. […]
assayReadout: concentration at 5 h (ng/mL)

INSERT INTO measurements (smilesnotation, endpointvalue) VALUES
  ('O=C(Cc1ccc(-c2ccc(OCCN3CCOCC3)cc2)cn1)NCc1ccccc1', 133);

---

experiment: plasma pharmacokinetics after oral administration; format: in vivo, Male CD-1 mice; conditions: male, CD-1, mouse, single oral dose 25 mg/kg
assayReadout: Cmax

INSERT INTO measurements (compound, endpointvalue) VALUES
  ('CN1CCN(CCOc2ccc(-c3ccc(CC(=O)NCc4cccc(F)c4)cc3)c(F)c2)CC1 [Compound 139]', '330 ng/mL');

---

test: plasma pharmacokinetics after IV administration; type: in vivo, Male CD-1 mice; details: male, CD-1, mouse, plasma, iv, 5 mg/kg, single IV dose 5 mg/kg, 5 min; read-out: Plasma Concentrations, Mean
assayReadout: concentration at 5 min (ng/mL)

INSERT INTO assay_data (smilesnotation, assayreadout, endpointvalue) VALUES
  ('CN1CCN(CCOc2ccc(-c3ccc(CC(=O)NCc4cccc(F)c4)cc3)c(F)c2)CC1', 'concentration at 5 min', 1250);

---

assay: brain exposure after oral administration; assay type: in vivo, male CD-1 mice; conditions: male, CD-1, mouse, brain, po, 50 mg/kg, single PO dose 50 mg/kg (Group 2), 2 hr; read-out: Brain Concentrations, Group A, B, C
assayReadout: concentration at 2 h

INSERT INTO results (compound, endpointvalue) VALUES
  ('O=C(Cc1ccc(-c2ccc(OCCN3CCOCC3)cc2)cn1)NCc1ccccc1 [KX2-391]', '613 ng/g');

---

experiment: brain exposure after oral administration; format: in vivo, male CD-1 mice; details: male, CD-1, mouse, brain, po, 50 mg/kg, Male CD-1 mice, single PO dose 50 mg/kg (Group 4), 5 hr, Mean; read-out: KX2-391 Brain Concentrations, Mean
assayReadout: concentration at 5 hr (ng/g)

INSERT INTO assay_data (compound, endpointvalue) VALUES
  ('O=C(Cc1ccc(-c2ccc(OCCN3CCOCC3)cc2)cn1)NCc1ccccc1 [KX2-391]', 207);

---

test: brain exposure after oral administration; format: in vivo, male CD-1 mice; settings: male, CD-1, mouse, brain, po, 50 mg/kg, Male CD-1 mice, single PO dose 50 mg/kg (Group 4), 1 hr, Group B; read-out: KX2-391 Brain Concentrations, Group B
assayReadout: concentration at 1 hr (ng/g)

INSERT INTO results (smilesnotation, assayreadout, unitofmeasure, endpointvalue) VALUES
  ('O=C(Cc1ccc(-c2ccc(OCCN3CCOCC3)cc2)cn1)NCc1ccccc1', 'concentration at 1 hr', 'ng/g', 1890);

---

Assay: brain exposure after oral administration
Assay type: in vivo, male CD-1 mice
Settings: male, CD-1, mouse, brain, po, 50 mg/kg, single PO dose 50 mg/kg (Group 2), 1 hr; read-out: Brain Concentrations, Group A, B, C
Method: Plasma concentrations were measured in mice after oral administration. All doses were formulated in purified water. Four groups of male CD-1 mice were dosed after an overnight fast and fed 4 hours post-dose. Dosing was as follows: Protein was precipitated with 0.25 mL acetonitrile for plasma, 0.25 mL for brain. After centrifugation, supernatant was directly injected into an LC/MS system. The limit of quantitation was 1 ng/mL using a 50 μL aliquot for plasma and a 50 μL, aliquot for brain. […]
assayReadout: concentration at 1 h (ng/g)

INSERT INTO measurements (compound, endpointvalue) VALUES
  ('O=C(Cc1ccc(-c2ccc(OCCN3CCOCC3)cc2)cn1)NCc1ccccc1 [KX2-391]', 946);

---

assay: plasma pharmacokinetics after IV administration; format: in vivo, Male CD-1 mice; conditions: male, CD-1, mouse, plasma, iv, 5 mg/kg, single IV dose 5 mg/kg, 30 min; read-out: Plasma Concentrations, Mean
assayReadout: concentration at 30 min (ng/mL)

INSERT INTO results (compound, assayreadout, endpointvalue) VALUES
  ('CN1CCN(CCOc2ccc(-c3ccc(CC(=O)NCc4cccc(F)c4)cc3)c(F)c2)CC1 [Compound 139]', 'concentration at 30 min', 382);

---

system: HT29 cell line; assay: BrdU cell growth inhibition, HT29; type: cell-based, human; settings: Homo sapiens, HT-29, HT29 (Colon) cells; read-out: GI50
Below, each of the compounds is paired with its reported GI50 value.
assayReadout: GI50 (nM)

INSERT INTO measurements (compound, targetortestsystem, assayreadout, endpointvalue) VALUES
  ('O=C(Cc1ccc(-c2ccccc2)cc1)NCc1cccc(O)c1 [KX1-136, N(3-hydroxy-benzyl)-4-biphenylacetamide]', 'HT29 cell line', 'GI50', 484),
  ('O=C(Cc1ccc(-c2ccc(N3CCOCC3)cc2)cn1)NCc1cccc(F)c1', 'HT29 cell line', 'GI50', 10),
  ('CCOc1ccc(-c2ccc(CC(=O)NCc3cccc(F)c3)cn2)cc1', 'HT29 cell line', 'GI50', 215),
  ('O=C(Cc1ccc(-c2ccc(OCCN3CCOCC3)cc2)cn1)NCc1ccccc1', 'HT29 cell line', 'GI50', 23),
  ('O=C(Cc1ccc(-c2ccc(CN3CCOCC3)cc2F)cn1)NCc1cccc(F)c1', 'HT29 cell line', 'GI50', 52),
  ('O=C(Cc1ccc(-c2ccccc2)cn1)NCc1cccc(F)c1', 'HT29 cell line', 'GI50', 338),
  ('CN1CCN(c2ccc(-c3ccc(CC(=O)NCc4cccc(F)c4)nc3)cc2)CC1', 'HT29 cell line', 'GI50', 639),
  ('CN1CCN(CCCOc2ccc(-c3ccc(CC(=O)NCc4cccc(F)c4)nc3)cc2)CC1', 'HT29 cell line', 'GI50', 868),
  ('COc1cc(Nc2c(C#N)cnc3cc(OCCCN4CCN(C)CC4)c(OC)cc23)c(Cl)cc1Cl', 'HT29 cell line', 'GI50', 173);
